Data provenance is the RNAGym collection of RNA variant scans (doi:10.1073/pnas.2313332121).

Exercise: state measured polymerase ribozyme fitness (log ratio) for each of the variants provided.
B1: TPR t1 (parent)
chain: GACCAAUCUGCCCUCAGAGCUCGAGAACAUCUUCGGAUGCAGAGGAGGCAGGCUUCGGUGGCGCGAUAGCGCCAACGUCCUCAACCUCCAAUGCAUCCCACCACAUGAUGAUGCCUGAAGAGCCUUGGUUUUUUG

variants of: B1; assay: polymerase ribozyme fitness, log enrichment relative to wild type (log ratio); higher = more active; in vitro selection for triplet polymerase activity

Field: example entries. Status: answers known.
Request: Item under review: C8A C28U G52U G117C C124A G128A U133A . Reported polymerase ribozyme fitness (log ratio)?
Response: -6.69

Request: Item under review: G60A G128A . Reported polymerase ribozyme fitness (log ratio)?
Response: -2.27

Request: Item under review: A5U G47A G113U . Reported polymerase ribozyme fitness (log ratio)?
Response: -3.72

Request: Item under review: C8A A18C C56G A95G . Reported polymerase ribozyme fitness (log ratio)?
Response: -2.26

Request: Item under review: A2G A5G C20A A46C U112G G122U U129C . Reported polymerase ribozyme fitness (log ratio)?
Response: -5.3

Request: Item under review: G45A C53G C64U . Reported polymerase ribozyme fitness (log ratio)?
Response: -0.958

Request: Item under review: A6C G52A C79U U87A . Reported polymerase ribozyme fitness (log ratio)?
Response: -0.58

Request: Item under review: A46C C56A G110U . Reported polymerase ribozyme fitness (log ratio)?
Response: -2.45

Request: Item under review: G48U G110A C124G U133A . Reported polymerase ribozyme fitness (log ratio)?
Response: -1.53

Request: Item under review: U81G U125A . Reported polymerase ribozyme fitness (log ratio)?
Response: -3.53

Hi, could you look up polymerase ribozyme fitness (log ratio) for each item in my list?
1. A6U C22G A26U C104U
2. C11U A27U G52C G61C
3. C20U U96A

Response:
-4.49
-4.18
-2.25

Hi, could you look up polymerase ribozyme fitness (log ratio) for each item in my list?
1. G10C G42C G77A C85A C86G C114A
2. C49U G52A C73G A121U

Response:
1. -5.24
2. -1.14

Hi, could you look up polymerase ribozyme fitness (log ratio) for each item in my list?
1. A5U C12U
2. U9G C72U C102A G122A U125A
3. A43U C53A C62A G93A U112C G128U
4. G36A C89A
5. A29C G71C A95U C124U
6. C13G A66U C114A
7. C13U U30C A46U C73U

Response:
0.00871
-1.75
-4.57
-2.49
-4.83
-4.3
-5.98
